# % inhibition per entry
- test_system: T1, recombinant human EGFR extracellular domain with 6xHis (human, UniProt P00533 25-645)
- T1 construct: In-house produced; also called 6xHis EGFR ECD; soluble human EGFR ECD; not shown: 6xHis tag
- assay_summary: SPR competition, competitor 1308
Write the answer as a number in %, unit excluded.

[
  {
    "binder": "antibody 1208 (antibody, human IgG1, kappa, V domains shown, Chimeric IgG1 kappa; also called clone 1208) VH: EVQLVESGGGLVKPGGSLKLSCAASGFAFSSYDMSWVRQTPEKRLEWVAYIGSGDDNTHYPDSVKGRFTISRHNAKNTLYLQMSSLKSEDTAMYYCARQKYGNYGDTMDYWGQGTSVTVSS VL: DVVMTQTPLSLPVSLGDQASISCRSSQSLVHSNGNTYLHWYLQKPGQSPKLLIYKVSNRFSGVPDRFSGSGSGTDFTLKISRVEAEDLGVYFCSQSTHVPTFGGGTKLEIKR",
    "recorded_endpoint": "% inhibition",
    "measurement": 5
  },
  {
    "binder": "antibody 1030 (antibody, human IgG1, kappa, V domains shown, Chimeric IgG1 kappa) VH: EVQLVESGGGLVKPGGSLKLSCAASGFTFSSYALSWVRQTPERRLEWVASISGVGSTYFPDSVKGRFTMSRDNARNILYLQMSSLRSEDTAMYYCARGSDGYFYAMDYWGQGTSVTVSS VL: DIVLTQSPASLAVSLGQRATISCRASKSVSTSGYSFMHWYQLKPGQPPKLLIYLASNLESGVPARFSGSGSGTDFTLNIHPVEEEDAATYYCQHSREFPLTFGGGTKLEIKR",
    "recorded_endpoint": "% inhibition",
    "measurement": -12
  }
]

Proceeding to the next binder to report its % inhibition.
Consider antibody 1024 (antibody, human IgG1, kappa, V domains shown, Chimeric IgG1 kappa) VH: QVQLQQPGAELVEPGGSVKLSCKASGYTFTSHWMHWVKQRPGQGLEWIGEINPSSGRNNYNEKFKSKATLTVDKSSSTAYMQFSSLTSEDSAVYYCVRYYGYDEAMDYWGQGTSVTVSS VL: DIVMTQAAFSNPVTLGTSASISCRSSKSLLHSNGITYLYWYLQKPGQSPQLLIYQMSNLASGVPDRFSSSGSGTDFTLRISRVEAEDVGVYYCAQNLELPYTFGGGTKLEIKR . Its measured % inhibition is -3
